Data credit: patent US11466044B2

- Tested on: E coli wild type
- METHOD DESCRIPTION: MIC by broth microdilution, wild type E coli
- Format: cell-based
- PROTOCOL CONDITIONS: Escherichia coli, ATCC25922, strain AG212 E. coli (ATCC25922); read-out: MIC AG212 E. coli
Where a name gives a salt, the structure may show the parent alone.
PROPERTY: MIC (µg/mL)

CCC(O)C1O[C@H](O[C@@H]2C(N)C[C@@H](N)C(O)[C@H]2O[C@@H]2O[C@H](CO)[C@H](O[C@H]3O[C@@H](CN)[C@@H](O)C(O)C3N)C2O)C(N)[C@@H](O)[C@@H]1O (stereo partly drawn) = 4
CC(C)(O)C1O[C@H](O[C@@H]2C(N)C[C@@H](N)C(O)[C@H]2O[C@@H]2O[C@H](CO)[C@H](O[C@H]3O[C@@H](CN)[C@@H](O)C(O)C3N)C2O)C(N)[C@@H](O)[C@@H]1O (stereo partly drawn) = 4
CNC1C(OC2C(N)CC(N)C(O)C2OC2OC(CO)C(OC3OC(CN)C(O)C(O)C3N)C2O)OC(CO)C(O)C1O (stereo not drawn) [Compound 115, 2′-N-Methyl-paromomycin acetate salt] = 4
